biological target: HRgpA-6H (Porphyromonas gingivalis) (UniProt P28784); test: ELISA, Fab FASEBA supernatant on coated HRgpA-6H
Give Ratio OD(Variant)/OD(WT) for every item shown.

parental mouse (KB001) Fab FASEBA, VL variant S95Q (Fab, V domains shown) VH: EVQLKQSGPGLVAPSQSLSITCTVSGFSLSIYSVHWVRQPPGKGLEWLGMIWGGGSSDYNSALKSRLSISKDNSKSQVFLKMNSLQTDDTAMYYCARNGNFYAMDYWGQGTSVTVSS VL: QIVLTQSPAIMSASLGERVTMTCTASSSVSSSFLHWYQQKPGSSPQLWIYSTSNLASGVPARFSGSGSGTSYSLTISSMEAEDAATYYCHQYHHQPYIYTFGGGTKLEIK	0.972 ratio to WT

Dear reader, for each entry below, please note its Ratio OD(Variant)/OD(WT).
1. parental mouse (KB001) Fab FASEBA, VL variant A56Q (Fab, V domains shown) VH: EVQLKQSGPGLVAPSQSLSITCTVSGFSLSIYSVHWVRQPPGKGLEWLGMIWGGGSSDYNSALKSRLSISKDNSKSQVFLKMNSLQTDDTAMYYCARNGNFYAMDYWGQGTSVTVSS VL: QIVLTQSPAIMSASLGERVTMTCTASSSVSSSFLHWYQQKPGSSPQLWIYSTSNLQSGVPARFSGSGSGTSYSLTISSMEAEDAATYYCHQYHHSPYIYTFGGGTKLEIK
2. parental mouse (KB001) Fab FASEBA, VL variant Y97H (Fab, V domains shown) VH: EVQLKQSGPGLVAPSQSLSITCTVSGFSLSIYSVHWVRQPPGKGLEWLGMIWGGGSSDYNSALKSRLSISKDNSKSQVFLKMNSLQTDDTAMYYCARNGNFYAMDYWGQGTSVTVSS VL: QIVLTQSPAIMSASLGERVTMTCTASSSVSSSFLHWYQQKPGSSPQLWIYSTSNLASGVPARFSGSGSGTSYSLTISSMEAEDAATYYCHQYHHSPHIYTFGGGTKLEIK
3. parental mouse (KB001) Fab FASEBA, VL variant Y97Q (Fab, V domains shown) VH: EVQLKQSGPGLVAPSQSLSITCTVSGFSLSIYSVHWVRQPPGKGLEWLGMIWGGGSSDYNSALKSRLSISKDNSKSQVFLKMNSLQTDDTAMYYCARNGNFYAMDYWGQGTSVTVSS VL: QIVLTQSPAIMSASLGERVTMTCTASSSVSSSFLHWYQQKPGSSPQLWIYSTSNLASGVPARFSGSGSGTSYSLTISSMEAEDAATYYCHQYHHSPQIYTFGGGTKLEIK
4. parental mouse (KB001) Fab FASEBA, VL variant Y97R (Fab, V domains shown) VH: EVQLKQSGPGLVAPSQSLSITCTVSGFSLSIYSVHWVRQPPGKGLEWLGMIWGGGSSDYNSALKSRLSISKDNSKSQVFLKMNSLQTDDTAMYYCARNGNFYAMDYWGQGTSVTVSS VL: QIVLTQSPAIMSASLGERVTMTCTASSSVSSSFLHWYQQKPGSSPQLWIYSTSNLASGVPARFSGSGSGTSYSLTISSMEAEDAATYYCHQYHHSPRIYTFGGGTKLEIK

Output:
1. 0.865 ratio to WT
2. 0.982 ratio to WT
3. 0.871 ratio to WT
4. 0.975 ratio to WT

Data origin, for the record: patent US20230365662A1
